Target: T1, recombinant human IL-31 (as used in the NHK STAT3 phosphorylation assay of Example 5) (human, UniProt Q6EBC2 24-164, limits assumed)
T1 sequence: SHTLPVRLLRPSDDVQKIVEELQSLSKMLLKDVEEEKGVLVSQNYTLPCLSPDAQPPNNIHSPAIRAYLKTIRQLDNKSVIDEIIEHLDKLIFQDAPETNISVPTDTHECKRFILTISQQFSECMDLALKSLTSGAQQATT
Assay: cell-based or functional assay
For each record, write down the corresponding IC50, IL-31-induced STAT3 phosphorylation in NHK, Exp 9.
Give bare numbers, in nM.

Use the examples below as a reference point.
>  <binder>
humanized 292.12.3.1 construct clone 7 (12VH1-gly + fback) (antibody, human IgG4, V domains shown, also called 07) VH: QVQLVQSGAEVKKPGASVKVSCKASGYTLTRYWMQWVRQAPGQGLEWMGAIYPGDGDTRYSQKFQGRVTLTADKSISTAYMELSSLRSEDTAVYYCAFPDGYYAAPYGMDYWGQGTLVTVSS VL: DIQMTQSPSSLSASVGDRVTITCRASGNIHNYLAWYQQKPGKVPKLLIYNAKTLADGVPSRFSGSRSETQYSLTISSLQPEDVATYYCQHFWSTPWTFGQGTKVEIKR

>  <experimentalValue>
7.58

$$$$
>  <binder>
humanized 292.12.3.1 construct clone 33 (12VH1(germ)-gly + fback) (antibody, human IgG4, V domains shown) VH: QVQLVQSGAEVKKPGASVKVSCKASGYTLTRYWMQWVRQAPGQGLEWMGAIYPGDGDTRYSQKFQGRVTLTADKSTSTAYMELSSLRSEDTAVYYCAFPDGYYAAPYGMDYWGQGTLVTVSS VL: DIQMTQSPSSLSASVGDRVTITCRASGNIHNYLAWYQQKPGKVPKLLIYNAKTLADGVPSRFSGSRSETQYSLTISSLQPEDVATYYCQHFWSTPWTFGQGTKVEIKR

>  <experimentalValue>
5.68

$$$$

Switching to the query record.
Fill in: IC50, IL-31-induced STAT3 phosphorylation in NHK, Exp 9 of humanized 292.12.3.1 construct clone 32 (12VH1-gly + HC(F29L, R71A, V78A, R94F) + LC(F71Y)) (antibody, human IgG4, V domains shown) VH: QVQLVQSGAEVKKPGASVKVSCKASGYTLTRYWMQWVRQAPGQGLEWMGAIYPGDGDTRYSQKFQGRVTMTADTSISTAYMELSSLRSEDTAVYYCAFPDGYYAAPYGMDYWGQGTLVTVSS VL: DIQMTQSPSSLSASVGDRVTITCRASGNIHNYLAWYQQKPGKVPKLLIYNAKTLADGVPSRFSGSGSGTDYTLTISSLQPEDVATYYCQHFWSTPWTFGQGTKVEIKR is ___
6.43
